All figures here come from patent US20250051338A1.

target: TYK2 (Homo sapiens); assay: TYK2 degradation MSD assay in EBV-B cells; type: cell-based; set-up: endogenous in cells; host or cells: EBV-B cells; conditions: 4 to 24 hours incubation, read-out: TYK2 MSD DC50 rating in EBV-B
Sequence (P29597 whole entry): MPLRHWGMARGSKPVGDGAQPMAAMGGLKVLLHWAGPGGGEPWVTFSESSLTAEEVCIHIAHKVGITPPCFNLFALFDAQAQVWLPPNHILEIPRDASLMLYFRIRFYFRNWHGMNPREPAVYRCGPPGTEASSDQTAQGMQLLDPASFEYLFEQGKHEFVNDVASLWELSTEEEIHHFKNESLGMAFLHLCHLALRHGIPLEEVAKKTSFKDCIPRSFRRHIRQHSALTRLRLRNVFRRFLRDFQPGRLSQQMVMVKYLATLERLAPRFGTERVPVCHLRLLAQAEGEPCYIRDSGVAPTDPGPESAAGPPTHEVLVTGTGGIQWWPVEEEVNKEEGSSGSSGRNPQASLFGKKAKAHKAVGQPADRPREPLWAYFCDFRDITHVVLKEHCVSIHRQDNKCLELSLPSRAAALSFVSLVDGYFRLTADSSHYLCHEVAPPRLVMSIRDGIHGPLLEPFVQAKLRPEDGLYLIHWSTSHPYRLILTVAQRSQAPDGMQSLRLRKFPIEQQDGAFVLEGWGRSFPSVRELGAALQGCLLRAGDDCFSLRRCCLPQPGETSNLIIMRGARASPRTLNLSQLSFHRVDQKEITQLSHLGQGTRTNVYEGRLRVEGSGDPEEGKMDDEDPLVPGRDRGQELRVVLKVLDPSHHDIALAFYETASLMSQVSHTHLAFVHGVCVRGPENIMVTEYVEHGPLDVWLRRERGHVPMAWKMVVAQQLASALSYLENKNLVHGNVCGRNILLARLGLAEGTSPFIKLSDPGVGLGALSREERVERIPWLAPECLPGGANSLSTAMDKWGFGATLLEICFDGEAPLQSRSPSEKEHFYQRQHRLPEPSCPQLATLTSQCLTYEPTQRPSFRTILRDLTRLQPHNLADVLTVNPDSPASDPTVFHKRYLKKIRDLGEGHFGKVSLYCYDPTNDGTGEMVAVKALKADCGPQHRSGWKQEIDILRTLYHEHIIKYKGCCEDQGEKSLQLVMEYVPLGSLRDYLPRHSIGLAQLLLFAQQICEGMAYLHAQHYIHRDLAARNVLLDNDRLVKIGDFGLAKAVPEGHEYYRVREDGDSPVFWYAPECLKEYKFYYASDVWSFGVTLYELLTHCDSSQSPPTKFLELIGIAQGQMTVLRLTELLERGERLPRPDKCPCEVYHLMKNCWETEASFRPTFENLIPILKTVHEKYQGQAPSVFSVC

>  <COMPOUND>
CNC(=O)c1cnc(Nc2ccc(C3CCN(Cc4cccc5c4n(C)c(=O)n5C4CCC(=O)NC4=O)CC3)cn2)cc1Nc1cccc(-c2ncc(F)cn2)c1OC (stereo not shown)

>  <DC50>
1 to 10 nM

$$$$
>  <COMPOUND>
CNc1cc(Nc2cccc(-c3ccc(CNCc4ccc(N5CCC(N6CCC(c7ccc8c(c7)n(C)c(=O)n8C7CCC(=O)NC7=O)C6)CC5)cc4)cn3)c2)nn2c(C(=O)N[C@@H]3C[C@@H]3F)cnc12 (stereo partly shown)

>  <DC50>
> 100 nM

$$$$
>  <COMPOUND>
CNc1cc(Nc2cccn(-c3ccc(C(=O)NCCCCCCCc4cccc5c4n(C)c(=O)n5C4CCC(=O)NC4=O)cn3)c2=O)nn2c(C(=O)N[C@@H]3C[C@@H]3F)cnc12 (stereo partly shown)

>  <DC50>
> 100 nM

$$$$
>  <COMPOUND>
CNC(=O)c1cnc(Nc2ccc(C(=O)NCCCCCCCCc3ccc4c(c3)n(C)c(=O)n4C3CCC(=O)NC3=O)cn2)cc1Nc1cccc(-c2ncc(F)cn2)c1OC (stereo not shown)

>  <DC50>
1 to 10 nM

$$$$
>  <COMPOUND>
CNc1cc(Nc2cccc(-c3ccc(CN4CCN(c5ccc(-c6ccc7c(c6)n(C)c(=O)n7C6CCC(=O)NC6=O)cc5)CC4)cn3)c2OC)nn2ccnc12 (stereo not shown)

>  <DC50>
> 100 nM

$$$$
>  <COMPOUND>
CNc1cc(-c2ccc(-c3ccc(CN4CCC(N5CC(N6CCN(c7ccc8c(c7)n(C)c(=O)n8C7CCC(=O)NC7=O)CC6)C5)CC4)cn3)cc2)nn2c(C(=O)N[C@@H]3C[C@@H]3F)cnc12 (stereo partly shown)

>  <DC50>
> 100 nM

$$$$
>  <COMPOUND>
CNC(=O)c1cnc(Nc2ccc(C(=O)N(C)C3CCN(c4ccc5c(c4)n(C)c(=O)n5C4CCC(=O)NC4=O)CC3)cn2)cc1Nc1cccc(-c2ncc(F)cn2)c1OC (stereo not shown)

>  <DC50>
< 1 nM

$$$$
>  <COMPOUND>
Cn1c(=O)n(C2CCC(=O)NC2=O)c2ccc(CCCCCCCCCCCCNc3cc(Nc4cccn(-c5ccccn5)c4=O)nn4c(C(=O)N[C@@H]5C[C@@H]5F)cnc34)cc21 (stereo partly shown)

>  <DC50>
> 100 nM

$$$$
>  <COMPOUND>
CNc1cc(Nc2cccc(CN3CC4(CCN(c5ccc(-c6ccc7c(c6)n(C)c(=O)n7C6CCC(=O)NC6=O)cn5)CC4)C3)c2)nn2c(C(=O)NC3CC3)cnc12 (stereo not shown)

>  <DC50>
> 100 nM

$$$$
>  <COMPOUND>
CNc1cc(Nc2cccn(-c3ccc(C(=O)N[C@H]4CC[C@H](CN(C)C5CCN(Cc6cccc7c6n(C)c(=O)n7C6CCC(=O)NC6=O)CC5)CC4)cn3)c2=O)nn2c(C(=O)N[C@@H]3C[C@@H]3F)cnc12 (stereo partly shown)

>  <DC50>
> 100 nM

$$$$
>  <COMPOUND>
CNC(=O)c1cnc(Nc2ccc(CN(C)C3CCN(c4cccc5c4n(C)c(=O)n5C4CCC(=O)NC4=O)CC3)cn2)cc1Nc1cccc(-c2ncc(F)cn2)c1OC (stereo not shown)

>  <DC50>
< 1 nM

$$$$
>  <COMPOUND>
CNc1cc(N2CCc3c(-c4ccc(CN5CCN(c6cccc7c6n(C)c(=O)n7C6CCC(=O)NC6=O)CC5)cn4)cccc32)nn2c(C(=O)N[C@@H]3C[C@@H]3F)cnc12 (stereo partly shown)

>  <DC50>
> 100 nM

$$$$
>  <COMPOUND>
CNc1cc(-c2ccc(C(=O)NCCCCc3cccc4c3n(C)c(=O)n4C3CCC(=O)NC3=O)cc2)nn2c(C(=O)N[C@@H]3C[C@@H]3F)cnc12 (stereo partly shown)

>  <DC50>
> 100 nM

$$$$
